- Tested on: RPMI-8226 leukemia
- Assay info: NCI-60 one-dose screen, 48 h
- Condition label: 10 µM unless noted
The panel holds about 83,000 compounds, 20% with a hit somewhere; the sample as a whole holds those more often. Active and inactive are the calls of the source. The calls were made as follows: active = growth percent below 10; inactive = the rest.
// one of 1 (active), 0 (inactive), no free text

Solved cases below.
>  <Molecule>
CC(=O)c1cc(C(=O)c2ccc(Br)cc2)n2cc(C)cc(C)c12

>  <Category>
0

$$$$
>  <Molecule>
Nc1nc(N)c2c(n1)NC(c1ccc(C(F)(F)F)cc1)CC(c1ccc(Nc3nc(NCCO)nc(N4CCOCC4)n3)cc1)=N2 (stereo not drawn)

>  <Category>
0

$$$$
>  <Molecule>
CC(C)(O)c1cncc(-c2ccc3ncnc(NCc4ccccc4)c3c2)c1

>  <Category>
0

$$$$
>  <Molecule>
O=S(=O)(Nc1cccc2ccccc12)c1ccc(-c2cnc(C3CC3)o2)cc1

>  <Category>
0

$$$$
>  <Molecule>
Fc1ccc(-c2cc3nc(C(Cl)Cl)nc(-c4ccc(F)cc4)n3n2)cc1

>  <Category>
1

$$$$

What outcome does the record of this test show for CCOC(=O)c1c(NC(=O)c2ccccc2C(F)(F)F)sc2c1CCC(=O)C2 ? 1

Moving on to COc1cc2nc(Cl)nc(Nc3cccc(C4=Nc5c(N)nc(N)nc5NC(c5ccc(Cl)cc5)C4)c3)c2cc1OC (stereo not drawn) 1

Follow-up entry: Fc1ccc(-c2cc3nc(C(Cl)Cl)nc(-c4ccco4)n3n2)cc1 1

Could you do the same for O=C1CCCc2nc(Nc3ccc(S(=O)(=O)Nc4ccc([N+](=O)[O-])cc4)cc3)ncc21 , please? 0

Moving on to c1ccc(C(c2nc3ncncc3[nH]2)N2CSc3nc4ncncc4n3C2)cc1 (stereo not drawn) 0

----------
- Test system: SF-295 CNS
- Assay info: NCI-60 one-dose screen, 48 h (100 = growth as untreated, 0 = no growth, -100 = all killed)
- Condition label: 10 µM unless noted
Compounds without any hit were thinned out: in the full panel of roughly 83,000, 20% have a hit.
Below, each entry is listed alongside its reported growth.
Answer in %, number only, no unit symbol.

Below, 6 compounds whose answers are already recorded.
>  <Compound>
Cc1ccc(S(=O)(=O)N(CC[C@@H]2C[C@H]2c2cc3ccccc3o2)S(=O)(=O)c2ccc(C)cc2)cc1

>  <growth (%)>
101

$$$$
>  <Compound>
CS(=O)(=O)c1ccc(-n2cc(/C=N/O)c(-c3ccccc3)n2)cc1

>  <growth (%)>
87.3

$$$$
>  <Compound>
CC(C)(C)c1ccc(C(=O)Nc2sc3c(c2C(N)=O)CCC(O)C3)cc1 (stereo not drawn)

>  <growth (%)>
-1.38

$$$$
>  <Compound>
Cc1cc(C(NC(=O)CCCCCNc2cccc3c2C(=O)N(C2CCC(=O)NC2=O)C3=O)c2ccc3c(c2)OC(F)(F)O3)c(O)c2ncccc12 (stereo not drawn)

>  <growth (%)>
48.2

$$$$
>  <Compound>
O=C(O)c1ccc(-n2cc(CNc3cccc(Cl)c3)c(-c3ccc(F)cc3)n2)cc1

>  <growth (%)>
87.6

$$$$
>  <Compound>
O=C1CCC(N2C(=O)c3ccc(NS(=O)(=O)c4ccccc4OC(F)(F)F)cc3C2=O)C(=O)N1 (stereo not drawn)

>  <growth (%)>
56.9

$$$$

What does the data say about its growth? Entry: O=C(Nc1ccc2c(ccn2Cc2ccccn2)c1)c1cnccn1 97.5

Entry to check: CC(C)(C)CC(C)(C)n1nnnc1C(Nc1nccs1)c1cc2cccc3ccc4cccc1c4c32 (stereo not drawn) 94.9

Next: CN1CCN(c2ccc(/C=N/Nc3nc4ccccc4c(=O)n3-c3ccccc3)cc2)CC1 101

Check C=C(C=O)[C@@H]1CC[C@]2(C)[C@H](CC=C3[C@H]4[C@@H](C)[C@H](C)CC[C@]4(C(=O)OC)CC[C@]32C)[C@@]1(C)CCC#N too. 7.53

How about CCCn1cnc2c(c1=N)C(c1ccc(Cl)cc1)c1sc3c(C)cccc3c1O2 (stereo not drawn) ? -6.66

Same thing, different compound: CCOc1ccc(C(=O)Nc2ncc(Cc3ccc(F)cc3)s2)cc1 4.39

And the next one, CCn1c(SCC(=O)Nc2cccc(C(=O)/C=C/c3ccccc3Cl)c2)nc2ccccc2c1=O ? 91.4

Another compound: O=S(=O)(NCCCNc1nccc(-c2[nH]c(-c3ccccc3)nc2-c2ccc(Cl)c(O)c2)n1)c1ccc(Br)cc1 2.98

Request: Cc1cc(C)n(C(=O)c2sc(=S)n(-c3ccccc3)c2N=Nc2c(N)n[nH]c2N)n1 104

Let us now turn to CC/C(=C/c1c(O)cccc1OC)c1ccc2c(OC)cccc2[o+]1 98.5

Again, but for COC(=O)C1(C)CCC[C@]2(C)[C@H]3C[C@H]4C(C(C)C)=C[C@]3(CC[C@@H]12)[C@H]1[C@@H]4[C@@H](OC(=O)c2ccco2)CC[C@@H]1OC(=O)c1ccco1 (stereo partly drawn) 98.3

Okay, and COc1ccc(/C=C(\C#N)C(=O)N2c3ccccc3Sc3ccc(SC)cc32)cc1F ? 104
